Test: Stability test in buffer (pH 7.4)
Format: physicochemical
Settings: phosphate buffer/acetonitrile 7:3; 10 minutes at 37°C, 100 mM potassium phosphate buffer (pH 7.4) and acetonitrile 7:3 (v/v), LC/MS; read-out: Buf. remaining rate (%/10min)
Method: In the tables, Buf. remaining rate was determined by stability test in buffer (pH 7.4) as described below. A sample dissolved in DMSO was mixed with a mixed solution of 100 mM potassium phosphate buffer and acetonitrile in the ratio of 7:3 (v/v). […] The solution was centrifuged, and the concentration of the sample (unchanged form) in the supernatant was determined by high performance liquid chromatography/mass spectrometry (LC/MS). […]
measurement_label: remaining at 10 min (%)

INSERT INTO results (smiles_str, measure_unit, numeric_value) VALUES
  ('CC(=O)c1ccc(OC(=O)CCCc2ccc(NC(=O)c3ccccc3-c3ccc(C(F)(F)F)cc3)c(C(=O)N(C)C)c2)cc1', '%', 96),
  ('COC(=O)c1cc(OC)c(OC(=O)CCCc2ccc(NC(=O)c3ccc(C)nc3-c3ccc(C(F)(F)F)cc3)c(C(=O)N(C)C)c2)c(C(F)(F)F)c1', '%', 96),
  ('CC(C)OC(=O)c1ccc(OC(=O)CCCc2ccc(NC(=O)c3ccccc3-c3ccc(C(F)(F)F)cc3)c(C(=O)N(C)C)c2)cc1', '%', 98),
  ('COC(=O)c1ccc(OC(=O)CCCc2ccc(NC(=O)c3ccccc3-c3ccc(C(F)(F)F)cc3)c(C(=O)N(C)C)c2)c(C(C)C)c1', '%', 101),
  ('CCCOC(=O)c1ccc(OC(=O)CCCc2ccc(NC(=O)c3ccccc3-c3ccc(C(F)(F)F)cc3)c(C(=O)N(C)C)c2)cc1', '%', 99),
  ('COC(=O)c1ccc(OC(=O)CCCc2ccc(NC(=O)c3ccccc3-c3ccc(C(F)(F)F)cc3)c(C(=O)N(C)C)c2)c(Cl)c1', '%', 99);

###

Test: Stability test in buffer (pH 7.4)
Type: physicochemical
Details: phosphate buffer/acetonitrile 7:3; 60 minutes at 37°C, 100 mM potassium phosphate buffer (pH 7.4) and acetonitrile 7:3 (v/v), LC/MS; read-out: Buf. remaining rate (%/60min)
Method: In the tables, Buf. remaining rate was determined by stability test in buffer (pH 7.4) as described below. A sample dissolved in DMSO was mixed with a mixed solution of 100 mM potassium phosphate buffer and acetonitrile in the ratio of 7:3 (v/v). […] The solution was centrifuged, and the concentration of the sample (unchanged form) in the supernatant was determined by high performance liquid chromatography/mass spectrometry (LC/MS). […]
measurement_label: remaining at 1 h (%)

INSERT INTO results (smiles_str, measurement_label, measure_unit, numeric_value) VALUES
  ('COC(=O)c1ccc(OC(=O)CCCc2ccc(NC(=O)c3ccc(C)nc3-c3ccc(C(F)(F)F)cc3)c(C(=O)N(C)C)c2)c(C)c1', 'remaining at 1 h', '%', 106),
  ('COC(=O)c1cc(OC)c(OC(=O)CCCc2ccc(NC(=O)c3ccc(C)nc3-c3ccc(C(F)(F)F)cc3)c(C(=O)N(C)C)c2)c(OC)c1', 'remaining at 1 h', '%', 104),
  ('CN(C)C(=O)c1cc(CCCC(=O)Oc2ccc(C(=O)OCCOCc3ccccc3)cc2)ccc1NC(=O)c1ccccc1-c1ccc(C(F)(F)F)cc1', 'remaining at 1 h', '%', 104),
  ('Cc1ccc(C(=O)Nc2ccc(CCCC(=O)Oc3ccc(C(=O)OCc4ccccc4)cc3)cc2C(=O)N(C)C)c(-c2ccc(C(F)(F)F)cc2)n1', 'remaining at 1 h', '%', 101),
  ('CCOC(=O)c1ccc(OC(=O)CCCc2ccc(NC(=O)c3ccccc3-c3ccc(C(F)(F)F)cc3)c(C(=O)N3CCCC3)c2)c(F)c1', 'remaining at 1 h', '%', 103),
  ('CN(C)C(=O)c1cc(CCCC(=O)Oc2ccc(C(=O)OCCCOCc3ccccc3)cc2)ccc1NC(=O)c1ccccc1-c1ccc(C(F)(F)F)cc1', 'remaining at 1 h', '%', 103);

###

Experiment: Stability test in buffer (pH 7.4)
Type: physicochemical
Settings: phosphate buffer/acetonitrile 7:3; 60 minutes at 37°C, 100 mM potassium phosphate buffer (pH 7.4) and acetonitrile 7:3 (v/v), LC/MS; read-out: Buf. remaining rate (%/60min)
measurement_label: remaining at 1 h (%)

INSERT INTO assay_data (molecule, measure_unit, numeric_value) VALUES
  ('COC(=O)c1ccc(OC(=O)CCCc2ccc(NC(=O)c3ccccc3-c3ccc(C(F)(F)F)cc3)c(C(=O)N(C)C)c2)c(C(C)C)c1 [Compound 1-68]', '%', 103),
  ('CCCC(=O)c1ccc(OC(=O)CCCc2ccc(NC(=O)c3ccccc3-c3ccc(C(F)(F)F)cc3)c(C(=O)N(C)C)c2)cc1 [Compound 1-93]', '%', 109),
  ('COc1cc(C(=O)OC(C)C)cc(F)c1OC(=O)CCCc1ccc(NC(=O)c2ccc(C)nc2-c2ccc(C(F)(F)F)cc2)c(C(=O)N(C)C)c1 [Compound 1-38]', '%', 102),
  ('CN(C)C(=O)c1cc(CCCC(=O)Oc2ccc(-c3nnn(C)n3)cc2)ccc1NC(=O)c1ccccc1-c1ccc(C(F)(F)F)cc1 [Compound 1-95]', '%', 102),
  ('COc1cc(C(=O)OCC(=O)N(C)C)cc(Cl)c1OC(=O)CCCc1ccc(NC(=O)c2ccc(C)nc2-c2ccc(C(F)(F)F)cc2)c(C(=O)N(C)C)c1 [Compound 1-113]', '%', 104),
  ('COC(=O)c1ccc(OC(=O)CCCc2ccc(NC(=O)c3ccccc3-c3ccc(C(F)(F)F)cc3)c(C(=O)N(C)C)c2)c(C(F)(F)F)c1 [Compound 1-20]', '%', 99),
  ('COC(=O)c1cc(C(=O)OC(C)C)ccc1OC(=O)CCCc1ccc(NC(=O)c2ccc(C)nc2-c2ccc(C(F)(F)F)cc2)c(C(=O)N(C)C)c1 [Compound 1-72]', '%', 112),
  ('CC(C)n1nnc(-c2ccc(OC(=O)CCCc3ccc(NC(=O)c4ccccc4-c4ccc(C(F)(F)F)cc4)c(C(=O)N(C)C)c3)cc2)n1 [Compound 1-115]', '%', 98),
  ('COC(=O)c1cc(C)c(OC(=O)CCCc2ccc(NC(=O)c3ccc(C)nc3-c3ccc(C(F)(F)F)cc3)c(C(=O)N(C)C)c2)c(OC)c1 [Compound 1-46]', '%', 102),
  ('COC(=O)c1cc(C)c(OC(=O)CCCc2ccc(NC(=O)c3ccc(C)nc3-c3ccc(C(F)(F)F)cc3)c(C(=O)N(C)C)c2)c(Cl)c1 [Compound 1-35]', '%', 105),
  ('CN(C)C(=O)Cn1nnc(-c2ccc(OC(=O)CCCc3ccc(NC(=O)c4ccccc4-c4ccc(C(F)(F)F)cc4)c(C(=O)N(C)C)c3)cc2)n1 [Compound 1-105]', '%', 101),
  ('CN(C)C(=O)c1cc(CCCC(=O)Oc2ccc(C(=O)OCc3cccc(Cl)c3)cc2)ccc1NC(=O)c1ccccc1-c1ccc(C(F)(F)F)cc1 [Compound 1-87]', '%', 104);

###

Experiment: Metabolic stability test in liver S9
Type: in vitro ADME
Conditions: pH 7.4; unchanged form after 10 minutes at 37°C, human liver S9 2 mg protein/mL, LC/MS; read-out: Remaining rate in human liver S9 (%/10min)
measurement_label: remaining at 10 min (%)

INSERT INTO assay_data (smiles_str, measure_unit, numeric_value) VALUES
  ('CN(C)C(=O)c1cc(CCCC(=O)Oc2ccc(-c3nnn(C)n3)cc2)ccc1NC(=O)c1ccccc1-c1ccc(C(F)(F)F)cc1', '%', 0);

I = COC(=O)c1cc(C)c(OC(=O)CCCc2ccc(NC(=O)c3ccc(C)nc3-c3ccc(C(F)(F)F)cc3)c(C(=O)N(C)C)c2)c(Cl)c1
II = CCc1cc(C(=O)OC)cc(C(=O)OC)c1OC(=O)CCCc1ccc(NC(=O)c2ccc(C)nc2-c2ccc(C(F)(F)F)cc2)c(C(=O)N(C)C)c1
III = CN(C)C(=O)c1cc(CCCC(=O)Oc2ccc(C(=O)OCc3ccc(C(=O)OC(C)(C)C)cc3)cc2)ccc1NC(=O)c1ccccc1-c1ccc(C(F)(F)F)cc1
IV = CCOC(=O)c1cc(Cl)c(OC(=O)CCCc2ccc(NC(=O)c3ccc(C)nc3-c3ccc(C(F)(F)F)cc3)c(C(=O)N(C)C)c2)c(OC)c1
V = COC(=O)c1ccc(OC(=O)CCCc2ccc(NC(=O)c3ccc(C)cc3-c3ccc(C(F)(F)F)cc3)c(C(=O)N(C)C)c2)cc1
hey, can you rank those compounds up there by remaining at 10 min? biggest number first please Write the labels in rank order as requested. III, IV, II, I, V

###

Assay: Metabolic stability test in liver S9
Assay type: in vitro ADME
Settings: pH 7.4; unchanged form after 10 minutes at 37°C, human liver S9 2 mg protein/mL, LC/MS; read-out: Remaining rate in human liver S9 (%/10min)
measurement_label: remaining at 10 min (%)

INSERT INTO results (compound, numeric_value) VALUES
  ('COC(=O)c1ccc(OC(=O)CCCc2ccc(NC(=O)c3ccccc3-c3ccc(C(F)(F)F)cc3)c(C(=O)N3CCCC3)c2)cc1 [Compound 1-15]', 4);

P = CCOC(=O)c1cc(OC)c(OC(=O)CCCc2ccc(NC(=O)c3ccc(C)nc3-c3ccc(C(F)(F)F)cc3)c(C(=O)N(C)C)c2)c(OC)c1 [Compound 1-43]
Q = COC(=O)c1ccc(OC(=O)CN(C)Cc2ccc(NC(=O)c3ccccc3-c3ccc(C(F)(F)F)cc3)c(C(=O)N(C)C)c2)cc1 [Compound 2-1]
Kindly compare P with Q and tell me which has the lower remaining at 10 min figure. In your reply, give the label of the chosen option. Q
(Q: 0%, P: 4%)
